This section presents variants with their documented folding stability dG values.
B1: EHEE_rd2_0196 (parent)
chain: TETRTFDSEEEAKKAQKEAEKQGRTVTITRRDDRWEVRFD

- Variants of: B1
- assay: folding stability dG (cDNA display proteolysis); higher = more stable
- measurement-setup: PBS, room temperature
measured-quantity: folding stability dG (kcal/mol)

mutation_key=F6N units_of_measure=kcal/mol measured_result=0.174
mutation_key=T27N units_of_measure=kcal/mol measured_result=2.11
mutation_key=A12I units_of_measure=kcal/mol measured_result=0.724
mutation_key=R38V units_of_measure=kcal/mol measured_result=3.02
mutation_key=D33N units_of_measure=kcal/mol measured_result=3.08
mutation_key=Q16G units_of_measure=kcal/mol measured_result=2.99
mutation_key=K17P units_of_measure=kcal/mol measured_result=0.527
mutation_key=R30F units_of_measure=kcal/mol measured_result=3.33
mutation_key=E10D units_of_measure=kcal/mol measured_result=2.76
mutation_key=T27K units_of_measure=kcal/mol measured_result=2.45
mutation_key=E2A units_of_measure=kcal/mol measured_result=2.84
